test: Cytotoxicity toward MCF-7 breast carcinoma cells; type: cell-based; design: concentration or dose not given beside the values; conditions: human, read-out: cytotoxicity (%) toward MCF-7 (cell viability)
readout kind: viability (%)
Quick reminder: number only, in %, skip the unit.

viability reported for this compound COc1c2c(c(C)c3c1C(=O)OC3)OC1(C)CC(O)C34OC(O)(CCC3(C)C1C2)OC4(C)C (stereo not drawn) [Compound 6, 17-O-demethylaustalide B] : 73.8

viability reported for this compound C=C1CCC2C(C)(CCC(O)C2(C)C(=O)O)C1CCC(C)=CC(=O)O (stereo not drawn) [Compound 9, 3β-hydroxy-agathic acid] : 88.8

viability reported for this compound C=C(C)[C@@H]1CC[C@]2(C)Oc3c(C)c4c(c(OC)c3C[C@@H]2[C@@]1(C)CCC(=O)O)C(=O)OC4 [Compound 8, 13-deoxyaustalide Q acid] : 76.3

viability reported for this compound COc1c2c(c(C)c3c1C(=O)OC3)O[C@@]1(C)C[C@@H](O)[C@@H](C(C)(C)O)[C@](C)(CCC(=O)O)[C@H]1C2 [Compound 5, austalide H acid] : 69.1

viability reported for this compound COc1c2c(c(C)c3c1C(=O)OC3)O[C@@]1(C)CC[C@@H](C(C)(C)O)[C@](C)(CCC(=O)O)[C@H]1C2 [Compound 4, austalide P acid] : 82.4

viability reported for this compound COC(=O)CCC1(C)C(C(C)(C)O)CCC2(C)Oc3c(C)c4c(c(O)c3CC21)C(=O)OC4 (stereo not drawn) [Compound 1, austalide Y] : 104

All figures here come from paper PMC7143578.
